# assay_target: Muscarinic acetylcholine receptor M2 (Homo sapiens)
# Sequence (P08172 whole entry): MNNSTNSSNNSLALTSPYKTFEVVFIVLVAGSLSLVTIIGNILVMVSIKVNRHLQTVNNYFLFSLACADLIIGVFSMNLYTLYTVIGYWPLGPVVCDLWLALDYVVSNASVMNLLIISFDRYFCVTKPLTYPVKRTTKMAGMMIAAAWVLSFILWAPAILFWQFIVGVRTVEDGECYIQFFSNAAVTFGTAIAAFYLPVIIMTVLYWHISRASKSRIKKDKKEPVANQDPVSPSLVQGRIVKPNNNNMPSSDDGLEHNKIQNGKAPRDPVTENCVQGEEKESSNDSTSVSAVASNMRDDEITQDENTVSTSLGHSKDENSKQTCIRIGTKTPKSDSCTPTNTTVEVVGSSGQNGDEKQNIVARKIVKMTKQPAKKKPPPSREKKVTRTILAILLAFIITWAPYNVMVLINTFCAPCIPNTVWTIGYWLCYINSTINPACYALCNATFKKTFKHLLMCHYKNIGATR
pEC50: −log10 of the molar value.
assay_readout: pEC50

C(#Cc1ccccc1)COc1nsnc1C1CN2CCC1CC2 (stereo not given)	7.21
C(#Cc1ccccc1)COc1nsnc1C12CN3CC1C2C3	6.11
C(#Cc1ccccc1)COc1nsnc1[C@@H]1CN2CC[C@H]1C2	5.96

(I) C(#Cc1ccccc1)COc1nsnc1[C@H]1CN2CC[C@@H]1C2
(II) C(#Cc1ccccc1)CSc1nsnc1[C@@H]1CN2CC[C@H]1C2
Prompt line: From the recorded data, which exceeds the other in pEC50: I or II ? Provide the label of your selected option as the answer.
Response line: II

* * *

Target sequence: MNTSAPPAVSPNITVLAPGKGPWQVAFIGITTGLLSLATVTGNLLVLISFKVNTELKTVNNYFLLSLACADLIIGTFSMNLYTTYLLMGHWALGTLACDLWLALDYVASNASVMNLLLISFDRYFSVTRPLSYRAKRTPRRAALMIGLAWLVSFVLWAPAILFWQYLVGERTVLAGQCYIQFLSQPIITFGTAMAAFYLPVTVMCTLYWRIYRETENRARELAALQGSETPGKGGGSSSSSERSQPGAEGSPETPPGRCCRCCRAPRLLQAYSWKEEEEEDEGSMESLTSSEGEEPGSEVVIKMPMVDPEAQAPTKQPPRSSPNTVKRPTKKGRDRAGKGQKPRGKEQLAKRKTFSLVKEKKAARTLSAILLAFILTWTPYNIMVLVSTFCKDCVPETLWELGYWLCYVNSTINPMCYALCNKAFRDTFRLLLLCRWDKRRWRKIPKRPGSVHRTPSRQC
assay_readout: EC50 (µM)

(1) C(#Cc1ccccc1)COc1nsnc1C12CN3CC1C2C3
(2) C(#Cc1ccccc1)COc1nsnc1[C@H]1CN2CCC1C2 (stereo not given in full)
(3) C(#Cc1ccccc1)COc1nsnc1[C@H]1CN2CC[C@@H]1C2
Prompt line: Sequence the entries by EC50, beginning with the highest number. State the ranking by listing the labels in the requested order.
Response line: 3, 1, 2

* * *

Form: system (Muscarinic acetylcholine receptor), quantity (IC50), values below.
assay_readout: IC50 (nM)

CN1CCC=C(c2nsnc2SCc2ccccc2)C1	5.9
CN1CCC=C(c2nsnc2OCc2ccccc2)C1	8
C(#Cc1ccccc1)CSc1nsnc1[C@H]1CN2CCC[C@H]1C2	1.7
CN1CCC=C(c2nsnc2SCCc2ccccc2)C1	23
c1ccc(CCCSc2nsnc2[C@@H]2CN3CCC[C@H]2C3)cc1	35
C(#Cc1ccccc1)CSc1nsnc1[C@@H]1CN2CC[C@H]1C2	42
COc1cccc(C#CCO/N=C2\CN3CCC2C3)c1 (stereo not given)	167
CCCCCCOc1nsnc1C1CN2CCC1CC2 (stereo not given)	4.3
C(#Cc1ccccc1)COc1nsnc1[C@@H]1CN2CCC[C@H]1C2	66
C(#Cc1ccccc1)COc1nsnc1[C@H]1CN2CC[C@@H]1C2	41

(I) CCCCCCCCOc1nsnc1C1=CCCN(C)C1
(II) CCCCCCOc1nsnc1[C@H]1CN2CCC[C@H]1C2
(III) CCOc1nsnc1C1=CCCN(C)C1
(IV) CN1CCC=C(c2nsnc2OCCc2ccccc2)C1
Prompt line: Put these in order: smallest IC50 first, largest last. State the ranking by listing the labels in the requested order.
Response line: II, III, IV, I
(II: 1.2 nM, III: 5.7 nM, IV: 15 nM, I: 30 nM)
